test system: RARg homodimer (NR concentration 270 nM); test: PBM binding z-score (relative to random genomic background probes); higher = stronger binding; sequences stand for … in GC…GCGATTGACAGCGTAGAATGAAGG
Endpoint name: PBM binding z-score
Just the number.

Answered examples (3):
* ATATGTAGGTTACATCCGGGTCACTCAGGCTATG | 2.2
* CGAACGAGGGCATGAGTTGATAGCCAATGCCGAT | 1.88
* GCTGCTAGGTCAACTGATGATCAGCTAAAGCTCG | 5.15

Please state recorded PBM binding z-score (tested on RARg homodimer (NR concentration 270 nM)) of "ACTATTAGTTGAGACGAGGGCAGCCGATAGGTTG"
0.715

Form: Entry = "GATACAGGGTCACCTAGAGGCCAGAGTATGGAAA" | System = RARg homodimer (NR concentration 270 nM) | PBM binding z-score = ____
5.66
